Cited source: patent US11504441B2

test: in vivo
Set-up: species or system mice
measurement setup: male, NODSCID 1L2RγKO, mouse, iv, total radioactivity, Lacrimal uptake
Below is a list of entries, each paired with its recorded tissue uptake at 1 h value.
Hey, just the number and the unit after it is fine.

COc1ccc(CCCC(=O)NCC(=O)N[C@@H](CCCCNC(=O)CN2CCN(CC(=O)O)CCN(CC(=O)O)CCN(CC(=O)O)CC2)C(=O)NC[C@H]2CC[C@H](C(=O)N[C@@H](Cc3c4ccccc4cc4ccccc34)C(=O)NCCCC[C@H](NC(=O)N[C@@H](COCC(=O)O)C(=O)O)C(=O)O)CC2)cc1 [177Lu-HTK04028, metal not drawn] ... 0.51 %ID/g

For O=C(O)CCC[C@H](NC(=O)N[C@@H](CCCCNC(=O)[C@H](Cc1c2ccccc2cc2ccccc12)NC(=O)[C@H]1CC[C@H](CNC(=O)CN2CCN(CC(=O)O)CCN(CC(=O)O)CCN(CC(=O)O)CC2)CC1)C(=O)O)C(=O)O [177Lu-HTK03149, metal not drawn] , write its tissue uptake at 1 h.
0.02 %ID/g

For the compound COc1ccc(CCCC(=O)NCC(=O)N[C@@H](CCCCNC(=O)CN2CCN(CC(=O)O)CCN(CC(=O)O)CCN(CC(=O)O)CC2)C(=O)NC[C@H]2CC[C@H](C(=O)N[C@@H](Cc3c4ccccc4cc4ccccc34)C(=O)NCCCC[C@H](NC(=O)N[C@@H](CSCC(=O)O)C(=O)O)C(=O)O)CC2)cc1 [177Lu-HTK04048, metal not drawn] , give its measured tissue uptake at 1 h value.
0.5 %ID/g

Respond only with tissue uptake at 1 h recorded for O=C(O)CCC[C@H](NC(=O)N[C@@H](CCCCNC(=O)[C@H](Cc1c2ccccc2cc2ccccc12)NC(=O)[C@H]1CC[C@H](CNC(=O)[C@H](CCCCNC(=O)CN2CCN(CC(=O)O)CCN(CC(=O)O)CCN(CC(=O)O)CC2)NC(=O)CNC(=O)CCCc2ccc(Cl)cc2)CC1)C(=O)O)C(=O)O [177Lu-HTK03153, metal not drawn]
0.35 %ID/g

Quick one: give measured tissue uptake at 1 h for COc1ccc(CCCC(=O)NCC(=O)N[C@@H](CCCCNC(=O)CN2CCN(CC(=O)O)CCN(CC(=O)O)CCN(CC(=O)O)CC2)C(=O)NC[C@H]2CC[C@H](C(=O)N[C@@H](Cc3c4ccccc4cc4ccccc34)C(=O)NCCCC[C@H](NC(=O)N[C@@H](CCCC(=O)O)C(=O)O)C(=O)O)CC2)cc1 [177Lu-HTK03170, metal not drawn]
0.27 %ID/g
